The measured values listed here are drawn from patent US20260374754A1.

Biological target: human activated kallikrein enzyme (Homo sapiens, UniProt P03952)
Sequence (P03952 391-638 limits assumed): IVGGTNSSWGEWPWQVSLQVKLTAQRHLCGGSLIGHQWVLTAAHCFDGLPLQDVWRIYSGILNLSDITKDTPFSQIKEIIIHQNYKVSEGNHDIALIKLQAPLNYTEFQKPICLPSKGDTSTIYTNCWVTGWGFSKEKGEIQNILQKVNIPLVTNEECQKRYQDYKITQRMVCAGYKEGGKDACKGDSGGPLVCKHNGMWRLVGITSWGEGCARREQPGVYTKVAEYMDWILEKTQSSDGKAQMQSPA
Sequence (P03952 20-390 partner limits assumed): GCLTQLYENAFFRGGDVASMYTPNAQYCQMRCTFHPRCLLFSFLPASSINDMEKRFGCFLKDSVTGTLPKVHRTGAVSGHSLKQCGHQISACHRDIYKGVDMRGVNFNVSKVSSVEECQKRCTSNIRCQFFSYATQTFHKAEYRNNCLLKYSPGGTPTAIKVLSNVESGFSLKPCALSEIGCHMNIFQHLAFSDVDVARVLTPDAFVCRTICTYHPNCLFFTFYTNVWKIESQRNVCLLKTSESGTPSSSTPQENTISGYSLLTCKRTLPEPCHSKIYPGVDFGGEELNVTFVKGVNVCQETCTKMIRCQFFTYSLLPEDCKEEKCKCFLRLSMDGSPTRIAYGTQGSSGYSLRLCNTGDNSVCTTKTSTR
Assay: Inhibition of human activated plasma kallikrein, fluorogenic PFR-AMC substrate, 500 pM enzyme format
Assay type: biochemical
Conditions: 500 pM activated kallikrein; 300 μM PFR-AMC; 30 min preincubation; 10 min room temperature; pH 7.5; read-out: Primary Dose Response Assay: Average EC50
Method: Compounds were evaluated for inhibition of the human activated kallikrein enzyme in two formats of an assay employing a fluorogenic peptide substrate. […] After initiation with substrate, reactions were incubated for 10 min at room temperature and fluorescence emission at 460 nm from 380 nm excitation measured with a microplate reader. […]
pEC50: −log10 of the molar value.
Below, each entry is listed with its recorded pEC50.

Lab note: need pEC50 with human activated kallikrein enzyme (Homo sapiens, UniProt P03952) for entry Cc1cc2c(N)nccc2c(C)c1CNC(=O)c1cnn(Cc2ccc3c(-n4ccccc4=O)cccc3c2)c1 , please look it up.
> 9.00

Lab note: need pEC50 with human activated kallikrein enzyme (Homo sapiens, UniProt P03952) for entry Cc1cc2c(N)nccc2c(C)c1CNc1cc(OCc2csc(-c3ccccc3)n2)cnn1 , please look it up.
7.00 to 8.00

Lab note: need pEC50 with human activated kallikrein enzyme (Homo sapiens, UniProt P03952) for entry COc1c(F)cccc1Cc1ccc(Cn2cc(C(=O)NCc3c(C)cc4c(N)nccc4c3C)cn2)cc1 , please look it up.
8.00 to 9.00

Lab note: need pEC50 with human activated kallikrein enzyme (Homo sapiens, UniProt P03952) for entry Cc1cc2c(N)nccc2c(C)c1CNC(=O)c1cnn(Cc2ccc(CC(=O)N(C)C)cc2)c1 , please look it up.
> 9.00

Lab note: need pEC50 with human activated kallikrein enzyme (Homo sapiens, UniProt P03952) for entry Cc1cc2c(N)nccc2c(C)c1CNc1cc(OCc2ccc3nccn3c2)cnn1 , please look it up.
6.00 to 7.00

----------
Biological target: human activated kallikrein enzyme (Homo sapiens, UniProt P03952)
Assay: Inhibition of human activated plasma kallikrein, fluorogenic PFR-AMC substrate, 500 pM enzyme format
Format: biochemical
Details: 500 pM activated kallikrein; 300 μM PFR-AMC; 30 min preincubation; 10 min room temperature; pH 7.5; read-out: Primary Dose Response Assay: Average EC50
pEC50: −log10 of the molar value. Where a name gives a salt, the structure may show the parent alone.
Below, each entry is listed with its recorded pEC50.

Worked cases, answers included:
{"columns": ["MOLECULE", "pEC50"],
 "data": [
  ["Cc1cc2c(N)nccc2c(C)c1CNc1cc(OCc2ccc(CN3CCOCC3=O)cc2)ncn1 [Example 302, trifluoroacetic acid salt]", "8.00 to 9.00"],
  ["Cc1c(CNC(=O)c2cnn(Cc3ccccc3)c2)c(C2CC2)cc2c(N)nccc12", "7.00 to 8.00"],
  ["Cc1cc2c(N)nccc2c(C)c1CNC(=O)c1cnn(Cc2cn3c(Br)cccc3n2)c1", "> 9.00"]
]}

Now let's try a different one.
Lab note: need pEC50 with human activated kallikrein enzyme (Homo sapiens, UniProt P03952) for entry Cc1cc2c(N)nccc2c(C)c1CNC(=O)c1cnn(Cc2ccc3nccnc3c2)c1 , please look it up.
8.00 to 9.00

----------
Target: human activated kallikrein enzyme (Homo sapiens)
Assay: Inhibition of human activated plasma kallikrein, fluorogenic PFR-AMC substrate, 500 pM enzyme format
Type: biochemical
Conditions: 500 pM activated kallikrein; 300 μM PFR-AMC; 30 min preincubation; 10 min room temperature; pH 7.5; read-out: Primary Dose Response Assay: Average EC50
Below, each entry is listed with its recorded EC50.

Which EC50 value is on record for Cc1cc2c(N)nccc2c(C)c1CNc1cc(OCc2ccc(CC(=O)N(C)C)cc2)ncn1 ?
0.001 to 0.01 µM

Which EC50 value is on record for COc1ccc2cc(CN(C)c3cc(NCc4c(C)cc5c(N)nccc5c4C)ncn3)ccc2c1 ?
0.1 to 1 µM

Which EC50 value is on record for Cc1cc2c(N)nccc2c(C)c1CNC(=O)c1cnn(Cc2cnc(-c3ccccc3)nc2)c1 ?
0.001 to 0.01 µM
